# ASSAY REMARKS: In vivo pharmacokinetics in male CD1 mice
# Parameters: species or system mouse
# ASSAY SETUP: mouse, plasma; Table 6; IV 0.5 mg/kg, male CD1 mice; read-out: T1/2 (h) IV (converted)
Could you please report measured half-life for the items listed next?
State just the number; it will be interpreted in h.

Please report the recorded half-life for O=C(COc1ccccc1Br)NCCc1nc2ccccc2[nH]1 .
0.2

Please report the recorded half-life for C=CCCn1c(CCNC(=O)COc2ccccc2Cl)nc2ccccc21 .
0.4

Please report the recorded half-life for O=C(COc1ccc2ccccc2c1)NCCc1nc2ccccc2[nH]1 .
0.2

Please report the recorded half-life for O=C(COc1ccccc1[N+](=O)[O-])NCCc1nc2ccccc2[nH]1 .
0.2

Please report the recorded half-life for O=C(CCc1ccccc1Br)NCCc1nc2ccccc2[nH]1 .
0.5

---

# SUBJECT OF TEST: cruzain (Trypanosoma cruzi)
# Construct: made in house; host or cells: Escherichia coli (strain M15)
# ASSAY REMARKS: Cruzain enzyme inhibition assay (cleavage of fluorogenic substrate Z-FR-AMC)
# Format: biochemical
# ASSAY SETUP: Table S2; substrate 20 µM; read-out: IC50 (µM) cruzain at [S] 20 µM
MEASURED PARAMETER: IC50 (µM)
State just the number; it will be interpreted in µM.

Lookup: IC50 / cruzain (Trypanosoma cruzi) / O=C(COc1ccccc1)NCCc1nc2ccccc2n1CCOc1ccccc1 [Compound 20]
0.3

Lookup: IC50 / cruzain (Trypanosoma cruzi) / O=C(COc1ccccc1)NCCc1nc2ccccc2n1CCCOc1ccccc1 [Compound 24]
2.5

Lookup: IC50 / cruzain (Trypanosoma cruzi) / O=C(COc1ccccc1)NCCc1nc2ccccc2n1Cc1ccccc1 [Compound 26]
2.4

Lookup: IC50 / cruzain (Trypanosoma cruzi) / C=CCCn1c(CCNC(=O)COc2ccccc2)nc2ccccc21 [Compound 27]
10.2

---

# SUBJECT OF TEST: cruzain (Trypanosoma cruzi, UniProt P25779)
# Construct: made in house; host or cells: Escherichia coli (strain M15)
# Sequence (P25779 123-337 limits assumed): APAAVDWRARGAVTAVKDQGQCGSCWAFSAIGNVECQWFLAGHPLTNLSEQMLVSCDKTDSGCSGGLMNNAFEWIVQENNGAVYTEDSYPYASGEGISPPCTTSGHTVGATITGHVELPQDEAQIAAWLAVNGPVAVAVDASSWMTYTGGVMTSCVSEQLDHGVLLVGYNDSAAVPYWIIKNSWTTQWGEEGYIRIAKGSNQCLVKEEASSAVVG
# ASSAY REMARKS: Cruzain enzyme inhibition assay (cleavage of fluorogenic substrate Z-FR-AMC)
# Format: biochemical
# ASSAY SETUP: Table S2; substrate 15 µM; read-out: IC50 (µM) cruzain at [S] 15 µM
MEASURED PARAMETER: IC50 (µM)
State just the number; it will be interpreted in µM.

Please report the recorded IC50 for O=C(COc1ccccc1)NCCc1nc2ccccc2n1CCCOc1ccccc1 [Compound 24] .
1.9

Please report the recorded IC50 for O=C(COc1ccccc1)NCCc1nc2ccccc2n1Cc1ccccc1 [Compound 26] .
1.4

Please report the recorded IC50 for C=CCCn1c(CCNC(=O)COc2ccccc2)nc2ccccc21 [Compound 27] .
11.2

Please report the recorded IC50 for O=C(COc1ccccc1)NCCc1nc2ccccc2n1CCOc1ccccc1 [Compound 20] .
0.8

---

Could you please report measured IC50 for the items listed next?
# SUBJECT OF TEST: cruzain (Trypanosoma cruzi)
# Construct: made in house; host or cells: Escherichia coli (strain M15)
# ASSAY REMARKS: Cruzain enzyme inhibition assay (cleavage of fluorogenic substrate Z-FR-AMC)
# Assay type: biochemical
# ASSAY SETUP: Table S2; substrate 40 µM; read-out: IC50 (µM) cruzain at [S] 40 µM
State just the number; it will be interpreted in µM.

Please report the recorded IC50 for O=C(COc1ccccc1)NCCc1nc2ccccc2n1CCOc1ccccc1 .
0.5

Please report the recorded IC50 for O=C(COc1ccccc1)NCCc1nc2ccccc2n1Cc1ccccc1 .
1.2

Please report the recorded IC50 for O=C(COc1ccccc1)NCCc1nc2ccccc2n1CCCOc1ccccc1 .
2.1

Please report the recorded IC50 for C=CCCn1c(CCNC(=O)COc2ccccc2)nc2ccccc21 .
8.9
